# Test system: C. elegans
# Recorded Conditions: Table S2, C. elegans SS assay, 110 μM, 0 h, averages of 4 data points
Parameter Measured: Percentage of motility inhibition 0 h (%)
One number for each entry, in %.

Reference set (3 entries):
# Compound, Percentage of motility inhibition 0 h [%]
records = [
    ("CC(=O)O[C@H]1[C@H](O[C@H]2CC[C@]34C[C@]35CC[C@]3(C)[C@@H]([C@@]6(C)CC[C@@H](C(C)(C)O)O6)[C@@H](O)C[C@@]3(C)[C@@H]5C[C@H](O[C@@H]3O[C@H](CO)[C@@H](O)[C@H](O)[C@H]3O)[C@H]4C2(C)C)OC[C@@H](OC(C)=O)[C@@H]1O [Isoastragaloside I]", 12),
    ("CC1(C)CC[C@]2(C(=O)O[C@@H]3O[C@H](CO)[C@@H](O)[C@H](O)[C@H]3O)CC[C@]3(C)C(=CC[C@@H]4[C@@]5(C)C[C@@H](O)[C@H](O[C@@H]6O[C@H](CO)[C@@H](O)[C@H](O)[C@H]6O)[C@@](C)(CO)[C@@H]5CC[C@]43C)[C@@H]2C1 [Lucyoside B]", 9),
    ("COC(=O)C1=COC(O[C@@H]2O[C@H](CO)[C@@H](O)[C@H](O)[C@H]2O)/C(=C/C(=O)O)C1CC(=O)OCCc1ccc(O)cc1 (some centres unmarked)", 3),
]

Okay, here is my list. What is Percentage of motility inhibition 0 h for each of these?
1. C=C(C)[C@@H]1CC[C@]2(C(=O)O)CC[C@]3(C)[C@H](CC[C@@H]4[C@@]5(C)CC[C@H](O)[C@@](C)(CO)[C@@H]5CC[C@]43C)[C@@H]12 [23-Hydroxybetulinic acid]
2. COCCNC(=O)Nc1ccc2nc(-c3cccs3)c(-c3cccs3)nc2c1 [Ac‐CoA Synthase Inhibitor1]
3. COC(=O)C1=CO[C@@H](O[C@@H]2O[C@H](CO)[C@@H](O)[C@H](O)[C@H]2O)[C@@H]2C(CO)=C[C@H](O)[C@H]12 [Methyl deacetylasperulosidate]
4. CC(=O)O[C@H]1CC/C(C)=C/CC/C(C)=C/C[C@]2(C(C)C)CC[C@@]1(C)O2 [Incensole Acetate]
5. C=C/C(C)=C/C=C/C(C)=C/C=C1/C(C)=CCCC1(C)C [all-trans-Anhydro Retinol]

13
16
16
9
61

Okay, here is my list. What is Percentage of motility inhibition 0 h for each of these?
1. C[C@@H]1O[C@@H](OC[C@H]2O[C@@H](Oc3c(-c4ccc(O)c(O)c4)oc4cc(O)cc(O)c4c3=O)[C@H](O)[C@@H](O)[C@@H]2O)[C@H](O)[C@H](O)[C@H]1O.O.O.O [Rutin (trihydrate)]
2. CO[C@@]1(NC(=O)C(C(=O)[O-])c2ccc(O)cc2)C(=O)N2C(C(=O)[O-])=C(CSc3nnnn3C)CO[C@@H]21.[Na+].[Na+] (some centres unmarked) [Moxalactam (sodium salt)]
3. O=C1N[C@@H]2C(=C[C@H](O)[C@@H](O)[C@H]2O)c2cc3c(c(O)c21)OCO3

2
22
32
